Taken from the RepoRT retention time repository.

Assay: A: acetonitrile + 0.1% formic acid + 10 mM ammonium formate; B: 5% water + 95% acetonitrile + 0.1% formic acid + 10 mM ammonium formate; gradient (min/%B) 0/10 2/10 22/100 27/100 27.1/10
Details: stereoisomer not certain
ASSAY ENDPOINT: LC retention time (min)

a: CC(=CC(=O)O)C(=O)O
b: CC(=O)NC(CO)C(=O)O (racemic)
// query Of a and b , which shows the smaller LC retention time value? Answer = label.
// result a

---

Assay: A: acetonitrile + 0.1% formic acid + 10 mM ammonium formate; B: 5% water + 95% acetonitrile + 0.1% formic acid + 10 mM ammonium formate; gradient (min/%B) 0/10 2/10 22/100 27/100 27.1/10
Conditions: stereoisomer not certain
ASSAY ENDPOINT: LC retention time (min)

Consider the reported LC retention time for these molecules:
>>> df
                                   molecule     assay_endpoint    val
0  CC1(C)SC2C(NC(=O)C(N)c3ccc(O)cc3)C(=O)N2C1C(=O)O (stereo not given)  LC retention time   5.79
1  CC(=O)C1(O)CCC2C3CC(C)C4=CC(=O)CCC4(C)C3CCC21C (stereo not given)  LC retention time  0.429
2    NC(CSCC(=O)O)C(=O)O (stereo not given)  LC retention time   6.96
3  O=c1ccn(C2OC(COP(=O)(O)O)C(O)C2O)c(=O)[nH]1 (stereo not given)  LC retention time   6.86
4  NCC(CC(=O)O)c1ccc(Cl)cc1 (stereo not given)  LC retention time   4.14
5                         O=P(O)(O)OC(CO)CO  LC retention time   6.56
6                         CCC[C@H](N)C(=O)O  LC retention time   5.65
7  NC(CCC(=O)NC(CSSCC(NC(=O)CCC(N)C(=O)O)C(=O)NCC(=O)O)C(=O)NCC(=O)O)C(=O)O (stereo not given)  LC retention time   8.69

1: CN1CC(=O)N2C(Cc3c([nH]c4ccccc34)C2c2ccc3c(c2)OCO3)C1=O (stereo not given)
2: CCN(CC)c1ccc2c(-c3ccccc3C(=O)[O-])c3ccc(=[N+](CC)CC)cc-3oc2c1
3: C[N+](C)(C)CCOP(=O)([O-])OCC(O)CO (stereo not given)
4: Nc1nc2c(ncn2COC(CO)CO)c(=O)[nH]1
// query Which order do these items take when sorted by rising LC retention time? List them. Write the labels, ordered according to the request.
// result 1, 2, 4, 3
(1: 0.457 min, 2: 0.776 min, 4: 4.73 min, 3: 7.21 min)

---

Test: A: acetonitrile + 0.1% formic acid + 10 mM ammonium formate; B: 5% water + 95% acetonitrile + 0.1% formic acid + 10 mM ammonium formate; gradient (min/%B) 0/10 2/10 22/100 27/100 27.1/10
Conditions: stereoisomer not certain
ASSAY ENDPOINT: LC retention time (min)

1: CC1=C(CC(=O)O)c2cc(F)ccc2C1=Cc1ccc(S(C)=O)cc1 (configuration not stated)
2: CN(CC(=O)O)C(=N)N
// query Of 1 and 2 , which shows the smaller LC retention time value? Answer = label.
// result 1
(1: 0.56 min, 2: 6.15 min)

1: O=c1[nH]c(=O)n(C2CC(O)C(CO)O2)cc1I (single isomer, unassigned; (+)) [(+)-5-Iodo-2'-deoxyuridine]
2: CC(=O)C1=CCC2C3CCC4=CC(=O)CCC4(C)C3CCC12C (configuration not stated) [16-Dehydroprogesterone]
// query Of 1 and 2 , which shows the smaller LC retention time value? Answer = label.
// result 2

---

Assay: A: acetonitrile + 0.1% formic acid + 10 mM ammonium formate; B: 5% water + 95% acetonitrile + 0.1% formic acid + 10 mM ammonium formate; gradient (min/%B) 0/10 2/10 22/100 27/100 27.1/10
Conditions: stereoisomer not certain
ASSAY ENDPOINT: LC retention time (min)

COMPOUND	LC retention time (min)
CCCCCCCCCCCCCC(=O)OCC(COP(=O)(O)OCCN)OC(=O)CCCCCCCCCCCCC (stereo unspecified) [1,2-Dimyristoyl-sn-glycero-3-phosphoethanolamine]	2.44
COc1ccc(C2Sc3ccccc3N(CCN(C)C)C(=O)C2OC(C)=O)cc1 (stereo unspecified) [Diltiazem]	1.04

1: CC1OC(OCC2OC(Oc3c(-c4ccc(O)c(O)c4)oc4cc(O)cc(O)c4c3=O)C(O)C(O)C2O)C(O)C(O)C1O (stereo unspecified) [Rutin]
2: NC(=O)NCCCC[C@H](N)C(=O)O [L-Homocitrulline]
3: Cc1c[nH]c2ccccc12 [3-Methylindole]
4: Nc1ncnc2c1ncn2C1OC(COP(=O)(O)OP(=O)(O)O)C(O)C1O (stereo unspecified) [Adenosine 5'-diphosphate]
// query Order field: LC retention time | Direction: descending (largest first) Write the labels, ordered according to the request.
// result 4, 2, 1, 3

I: CCC=CCC1C(=O)CCC1CC(=O)OC (mixture of isomers) [Methyl Jasmonate (mixture of isomers)]
II: NCCc1cnc[nH]1 [Histamine]
III: COc1ccc(CCN(C)CCCC(C#N)(c2ccc(OC)c(OC)c2)C(C)C)cc1OC (racemic) [(+/-)-Verapamil]
// query Order field: LC retention time | Direction: descending (largest first) Write the labels, ordered according to the request.
// result II, III, I
(II: 7.92 min, III: 0.815 min, I: 0.421 min)

P: CC(=O)C1(O)CCC2C3CCC4=CC(=O)CCC4(C)C3CCC21C (stereo not drawn) [17-alpha-Hydroxyprogesterone]
Q: OC[C@H]1O[C@@H](O[C@H]2[C@H](O)[C@@H](O)[C@H](O)O[C@@H]2CO)[C@H](O)[C@@H](O)[C@H]1O [beta-Lactose]
R: Nc1ncnc2nc[nH]c12 [Adenine]
S: CCCCC(=O)N(Cc1ccc(-c2ccccc2-c2nn[nH]n2)cc1)C(C(=O)O)C(C)C (stereo unspecified) [Valsartan]
T: Nc1ccn(C2OC(COP(=O)(O)OP(=O)(O)OP(=O)(O)O)C(O)C2O)c(=O)n1 (stereo unspecified) [Cytidine 5'-triphosphate]
// query Which order do these items take when sorted by rising LC retention time? List them. Write the labels, ordered according to the request.
// result P, S, R, Q, T

---

Test: A: acetonitrile + 0.1% formic acid + 10 mM ammonium formate; B: 5% water + 95% acetonitrile + 0.1% formic acid + 10 mM ammonium formate; gradient (min/%B) 0/10 2/10 22/100 27/100 27.1/10
Details: stereoisomer not certain
ASSAY ENDPOINT: LC retention time (min)

                                   compound    val
0  Cc1c(OCC(F)(F)F)ccnc1CS(=O)c1nc2ccccc2[nH]1 (stereo not drawn) [Lansoprazole]  0.475
1  CCOC(=O)c1ccc(N)cc1 [Ethyl 4-aminobenzoate]  0.422
2  O=C(O)/C=C/c1ccccc1 [trans-Cinnamic acid]  0.485
3      CCOC(=O)CC(=O)OCC [Diethyl malonate]   0.43
4               COc1cc(C=O)ccc1O [Vanillin]  0.435
5  CN1C(C(=O)Nc2ccccn2)=C(O)c2ccccc2S1(=O)=O [Piroxicam]   0.44
6      CCOC(=O)CC(C)=O [Ethyl acetoacetate]  0.418
7  C=C1CCC2CC1C2(C)C (stereo not drawn) [beta-Pinene]  0.452

---

Test: A: acetonitrile + 0.1% formic acid + 10 mM ammonium formate; B: 5% water + 95% acetonitrile + 0.1% formic acid + 10 mM ammonium formate; gradient (min/%B) 0/10 2/10 22/100 27/100 27.1/10
Settings: stereoisomer not certain
ASSAY ENDPOINT: LC retention time (min)

>>> df
                                   molecule    val
0    CC(=O)Nc1ccc(O)cc1 [4-Acetamidophenol]  0.477
1  O=C(O)c1c[nH]c2ccccc12 [Indole-3-carboxylic acid]  0.506
2  NC(=O)N1c2ccccc2C=Cc2ccccc21 [Carbamazepine]  0.469
3  COc1ccc2[nH]cc(CCN)c2c1 [5-Methoxytryptamine]   2.21
4  CC(NC(C)(C)C)C(=O)c1cccc(Cl)c1 (stereo not drawn) [Bupropion]  0.963
5                 NCCc1ccc(O)cc1 [Tyramine]   3.19
6      COc1cc(CCN)ccc1O [3-Methoxytyramine]   2.92
7  NCC(O)c1ccccc1 (stereo not drawn) [2-Amino-1-phenylethanol]   2.92
